The reported measurements were obtained from ChEMBL document CHEMBL3988442.

molecular target: AMP-activated protein kinase, AMPK (Homo sapiens) (UniProt P54646+O43741+P54619+Q9UGJ0+Q9Y478+Q13131+Q9UGI9); assay: AMP-dependent Kinase enzyme assay. An in vitro enzyme assay that detects ADP turnover that is directly proportional to AMPK activity. This uses naive AMPK that is activated during the assay with MK-8722; format: functional; set-up: scale not given: direction of the effect not stated beside the values; settings: 30 µM
readoutKind: Percent Effect (%)
The reply should be a number in %, with the unit left off.

Observe how each entry below is paired with its result.
| compound | readoutUnit | Percent Effect |
| --- | --- | --- |
| NC(=O)c1ccnc(N2CCCC(CO)(Cc3ccccc3)C2)c1 (stereo not drawn) | % | 11.6 |
| CN(C)Cc1cccc(-c2cccnc2C(=O)NCC2CC2)c1 | % | 20.3 |
| CN(c1ncc(S(N)(=O)=O)s1)C1CCc2ccccc2C1 (stereo not drawn) | % | 5.32 |
| CCn1cc(S(=O)(=O)Nc2ccc3[nH]c(C4CCC4)nc3c2)cn1 | % | 2.5 |
| Cc1nccc(C2(C)CCCNC2)n1 (stereo not drawn) | % | 13.7 |
| COc1ccc(F)cc1CN(CC(N)=O)C(C)C | % | -8.18 |
| O=C(CCCN1CCCCC1)NC(C(=O)O)c1ccc(Cl)cc1 (stereo not drawn) | % | 6.04 |
| COc1ccc(C2CCN(S(=O)(=O)CCCC#N)CC2)cc1 | % | -2.21 |

Record CN(Cc1cc(Cl)c2c(c1)OCO2)Cc1cscn1 , field Percent Effect: -12.9

Value of Percent Effect reported for the compound Cc1cc(C(=O)NCCC(=O)N2CCCc3ccccc32)no1 is -5.97

get_value(item= COc1cccc2ccc(N3CCC(O)(c4ccc(C)cn4)CC3)nc12 , readout=Percent Effect) returns 11.8

For this compound ( O=C(CCC1CCCN(C(=O)CCc2ccc(F)c(F)c2)C1)NC1CC1 (stereo not drawn) ), measured Percent Effect is 5.21

Measured Percent Effect of CN(C)CCNC(=O)CCC1CCN(C(=O)c2ccc(O)cn2)CC1 : 7.4

----------
biological target: Protein translocase subunit SecA (Escherichia coli (strain K12)) (UniProt P10408); test: Assay to Identify E. coli SecA ATPase Inhibitors; type: functional; design: scale not given: direction of the effect not stated beside the values; conditions: 30 µM
Sequence (P10408 whole entry): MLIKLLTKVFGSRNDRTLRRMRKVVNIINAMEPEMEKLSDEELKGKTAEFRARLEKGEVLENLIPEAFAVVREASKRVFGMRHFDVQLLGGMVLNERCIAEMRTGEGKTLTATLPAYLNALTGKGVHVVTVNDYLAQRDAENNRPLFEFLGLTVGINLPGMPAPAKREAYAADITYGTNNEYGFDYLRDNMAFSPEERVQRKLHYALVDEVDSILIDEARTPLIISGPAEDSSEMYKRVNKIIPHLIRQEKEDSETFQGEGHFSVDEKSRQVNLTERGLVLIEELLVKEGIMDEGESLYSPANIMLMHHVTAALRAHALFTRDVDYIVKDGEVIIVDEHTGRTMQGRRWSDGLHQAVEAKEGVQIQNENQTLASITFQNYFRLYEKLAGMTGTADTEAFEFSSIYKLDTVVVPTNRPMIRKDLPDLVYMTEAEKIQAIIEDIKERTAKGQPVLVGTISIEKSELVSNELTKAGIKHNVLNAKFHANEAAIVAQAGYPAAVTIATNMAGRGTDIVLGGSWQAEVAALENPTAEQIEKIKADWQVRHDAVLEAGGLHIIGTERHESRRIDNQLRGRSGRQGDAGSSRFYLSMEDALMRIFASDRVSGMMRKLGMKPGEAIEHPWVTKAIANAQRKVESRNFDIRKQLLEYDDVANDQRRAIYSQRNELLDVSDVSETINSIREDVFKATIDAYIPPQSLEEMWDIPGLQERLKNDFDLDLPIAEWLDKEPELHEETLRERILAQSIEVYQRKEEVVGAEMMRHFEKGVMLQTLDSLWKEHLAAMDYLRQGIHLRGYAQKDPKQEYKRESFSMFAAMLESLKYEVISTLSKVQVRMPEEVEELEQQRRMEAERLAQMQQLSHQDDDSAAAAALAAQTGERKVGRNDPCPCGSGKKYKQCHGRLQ
Measured potencies and affinities stand elsewhere.
readoutKind: Percent Effect (%)
Please respond with the number in % and leave the unit unwritten.

| compound | readoutKind | obsValue |
| --- | --- | --- |
| O=C(Cc1n[nH]c2ccccc12)N1CCC(Nc2cccnn2)CC1 | Percent Effect | -6.35 |
| Cc1cnn(CC2CCCCN2C(=O)c2cc(Cl)c[nH]2)c1 (stereo not drawn) | Percent Effect | -3.19 |

Could you now consider this next compound?
Item: Cc1noc(C2CCN(C(=O)c3ccc(NC4CC4)nc3)CC2)n1 | System: Protein translocase subunit SecA (Escherichia coli (strain K12)) (UniProt P10408) | Percent Effect: -3.73

----------
Listed here are compounds together with their documented Percent Effect.
organism: Homo sapiens; test: To identify inhibition of the IFN signalling (Jak-Stat) pathway via expression of an eGFP reporter gene under the control of an IFN-stimulated response element (ISRE) containing MxA promoter.; type: functional; set-up: scale not given: direction of the effect not stated beside the values; settings: 30 µM
Please state the value followed by its unit.

| compound | Percent Effect |
| --- | --- |
| COc1ccc(CNCc2ccnc(N3CCCCC3)c2)cc1OC | 25.8% |
| Cn1ccnc1CN1CCOCC(Cc2ccccn2)C1 (stereo not given) | 8.81% |

Lookup result for CC(C)c1cc(N2CCC(N)CC2)n2nccc2n1 ; measured Percent Effect: 11.5%

Percent Effect recorded for this compound, CCS(=O)(=O)c1ncc(CN(C)Cc2ccccn2)n1CCOC , is 3.71%

compound CCc1nc(C2CCCN2C(=O)c2c[nH]c(C)n2)no1 (stereo not given) , Percent Effect observed: -2.6%

----------
target: Tyrosyl-tRNA synthetase, putative (Trypanosoma cruzi (strain CL Brener)) (UniProt Q4DSP6); experiment: Trypanosoma cruzi tyrosyl tRNA synthetase (TcYRS) _High Tyrosine SOP; format: functional; set-up: scale not given: in the data most compounds retested in dose-response had high values; conditions: 30 µM
Sequence (Q4DSP6 as listed by the source): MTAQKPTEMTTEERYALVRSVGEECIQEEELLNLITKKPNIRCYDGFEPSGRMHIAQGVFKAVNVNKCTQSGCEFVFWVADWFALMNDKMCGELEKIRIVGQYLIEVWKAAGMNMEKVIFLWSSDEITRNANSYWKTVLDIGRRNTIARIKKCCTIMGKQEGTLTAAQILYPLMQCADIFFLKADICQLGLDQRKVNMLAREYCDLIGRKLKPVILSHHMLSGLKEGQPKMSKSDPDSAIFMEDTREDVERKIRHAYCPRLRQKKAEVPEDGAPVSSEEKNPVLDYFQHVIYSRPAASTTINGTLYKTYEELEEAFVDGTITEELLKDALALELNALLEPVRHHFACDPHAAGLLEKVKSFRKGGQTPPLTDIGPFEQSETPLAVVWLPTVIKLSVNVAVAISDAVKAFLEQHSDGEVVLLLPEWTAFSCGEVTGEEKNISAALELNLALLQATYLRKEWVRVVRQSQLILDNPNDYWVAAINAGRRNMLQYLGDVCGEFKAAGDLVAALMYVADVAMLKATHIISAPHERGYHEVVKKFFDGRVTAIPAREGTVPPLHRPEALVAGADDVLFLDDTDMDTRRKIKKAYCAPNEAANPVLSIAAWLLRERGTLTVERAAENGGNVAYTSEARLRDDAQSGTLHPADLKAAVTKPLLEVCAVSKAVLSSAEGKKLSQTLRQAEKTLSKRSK
Everything with Percent Effect lower than 3% is f; everything else, including exactly 3%, is t.

Example entries begin here.
| compound | targetOfAssay | groupLabel |
| --- | --- | --- |
| O=C(c1cc(C2CC2)[nH]n1)N1CCCC(n2cncn2)C1 (stereo not given) | Tyrosyl-tRNA synthetase, putative (Trypanosoma cruzi (strain CL Brener)) (UniProt Q4DSP6) | f |
| O=C1NCCN(CC2CC2)C12CCN(Cc1ccco1)CC2 | Tyrosyl-tRNA synthetase, putative (Trypanosoma cruzi (strain CL Brener)) (UniProt Q4DSP6) | f |
| Cn1ncc(NCc2cc(F)cc(F)c2)c(Cl)c1=O | Tyrosyl-tRNA synthetase, putative (Trypanosoma cruzi (strain CL Brener)) (UniProt Q4DSP6) | t |

I'd appreciate it if you could say whether Cc1noc(C2CCN(C(=O)c3ccc(N(C)C)nc3)CC2)n1 has Percent Effect at least equal to 3%.
t

----------
biological target: Arginase-2, mitochondrial (Homo sapiens) (UniProt P78540); assay: in vitro enzyme assay to detect the production of urea directly proportional to the activity of Arginase II; assay type: functional; set-up: scale not given: in the data most compounds retested in dose-response had high values; conditions: 30 µM
readoutKind: Percent Effect
Reply with the number, then its unit.

Lab book: Percent Effect of CC(C)CN1CCC(NC(=O)c2ccc(F)cc2F)CC1 noted as 7.03%

For this molecule ( Cn1cc(CC2CCN(C(=O)NCCCc3ccc(O)cc3)C2)cn1 (stereo unspecified) ), measured Percent Effect is 7.03%

The molecule Cc1noc(C)c1C(=O)N1CCCC(c2nccn2Cc2cscn2)C1 (stereo unspecified) showed Percent Effect equal to 5.95%

Record Cc1cc(C)cc(OCC(O)CN2CCN(c3nccs3)CC2)c1 (stereo unspecified) . Reported Percent Effect: 4.87%

Reported Percent Effect of CC(C)c1ncc(CN2CCOC(C(=O)Nc3ccccc3)C2)cn1 (stereo unspecified) : 3.78%

The reported Percent Effect of the molecule CN(C)C(=O)CN1CCC(c2cncc(-c3cccc(Cl)c3)n2)CC1 was -0.54%

----------
Target: Arginase-2, mitochondrial (Homo sapiens) (UniProt P78540)
Sequence (whole entry): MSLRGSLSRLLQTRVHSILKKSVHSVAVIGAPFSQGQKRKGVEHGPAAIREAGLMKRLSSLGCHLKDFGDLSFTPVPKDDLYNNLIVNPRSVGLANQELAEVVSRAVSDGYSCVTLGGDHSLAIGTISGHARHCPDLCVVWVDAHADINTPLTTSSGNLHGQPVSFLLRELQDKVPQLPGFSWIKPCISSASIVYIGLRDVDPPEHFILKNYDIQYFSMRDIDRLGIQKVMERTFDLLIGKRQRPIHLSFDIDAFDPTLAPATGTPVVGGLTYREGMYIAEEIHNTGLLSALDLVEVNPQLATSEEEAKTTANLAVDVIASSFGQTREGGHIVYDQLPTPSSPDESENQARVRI
Experiment: in vitro enzyme assay to detect the production of urea directly proportional to the activity of Arginase II
Assay type: functional
Set-up: scale not given: direction of the effect not stated beside the values
Conditions: 33.3 µM
readoutKind: Percent Effect (%)
Write the value in % as a bare number.

Known results for compounds:
| compound | Percent Effect / % |
| --- | --- |
| Cc1noc(C2CCN(C(=O)CCc3nccs3)CC2)n1 | 3.28 |
| CC(C)(C)c1n[nH]c(C2CN(C(=O)c3ccsc3)CCO2)n1 (stereo not drawn) | 0.82 |
| Cc1cn[nH]c1C1CCCCN1C(=O)CCN1CCCCCC1 (stereo not drawn) | 1.77 |
| CN(Cc1nnc(C2CC2)o1)C1CCN(CCCc2cnn(C)c2)C1 (stereo not drawn) | -2.22 |
| CC(C)c1cc(NC(=O)CN2CCC(N3CCCCC3)CC2)on1 | -1.43 |
| COCCc1noc(CNC2CCSC2)n1 (stereo not drawn) | 1.75 |
| CCC(O)CN1CCN(C(=O)c2sccc2OC)CC1 (stereo not drawn) | -3.89 |
| Cc1cnn(C2CCCN(C(=O)c3sccc3C#N)C2)c1 (stereo not drawn) | -2.05 |

The recorded Percent Effect with Arginase-2, mitochondrial (Homo sapiens) (UniProt P78540) for O=C(CCSc1ccc(F)cc1)NS(=O)(=O)c1ccc2c(c1)OCCO2 was -2.05

# value of Percent Effect, Arginase-2, mitochondrial (Homo sapiens) (UniProt P78540), item CN(Cc1noc(C2CC2)n1)C1CCN(Cc2ccncc2)C1 (stereo not drawn) = 7.38

I looked up CN(C)S(=O)(=O)N1CC[C@]2(C[C@H](Oc3ncccc3F)CO2)C1 and its Percent Effect for Arginase-2, mitochondrial (Homo sapiens) (UniProt P78540) was 0

Here CCc1nc(CC(=O)N2CCCC2Cn2cccn2)cs1 (stereo not drawn) was tested on Arginase-2, mitochondrial (Homo sapiens) (UniProt P78540), and its Percent Effect came to 4.43

Result for CC1(C)OCC(CNC(=O)c2cnn(-c3cc(Cl)ccc3Cl)c2N)O1 (stereo not drawn) , tested on Arginase-2, mitochondrial (Homo sapiens) (UniProt P78540), Percent Effect: 3.98

Arginase-2, mitochondrial (Homo sapiens) (UniProt P78540) Percent Effect of CN(C)c1ccc(NC(=O)NCc2ccccn2)cn1 is -0.205

Note to self: Percent Effect of O=C(Cn1c(=O)nc2n1C(=O)N(c1ccccc1)C2)Nc1ccccc1 with Arginase-2, mitochondrial (Homo sapiens) (UniProt P78540) was 24.8

Recorded Percent Effect for CCCN1CCCn2nc(CNS(=O)(=O)c3cccc(C#N)c3)cc2C1 on Arginase-2, mitochondrial (Homo sapiens) (UniProt P78540) was 2.45

The observed Percent Effect for CNC(=O)c1cc(S(=O)(=O)C(C)C)cs1 when tested with Arginase-2, mitochondrial (Homo sapiens) (UniProt P78540) stands at 3.2

// compound CCn1cc2c(n1)C(COC)CN(C(=O)COc1ccccc1C)C2 (stereo not drawn) , assay Arginase-2, mitochondrial (Homo sapiens) (UniProt P78540), Percent Effect value: -13.4

Item CC(C)CNc1nc(C(=O)/N=c2\[nH]nc(C(C)(C)C)s2)cs1 ; assay system Arginase-2, mitochondrial (Homo sapiens) (UniProt P78540); Percent Effect reported as 1.75

Fill in: Arginase-2, mitochondrial (Homo sapiens) (UniProt P78540) Percent Effect for FC(F)(F)c1nc(NC2CCCC2)c2ccccc2n1 = 5.94

Form field, Percent Effect with Arginase-2, mitochondrial (Homo sapiens) (UniProt P78540), item CC(C)(C)n1ncc2c1NC(=O)CC2c1ccsc1 (stereo not drawn) : 5.94

Percent Effect on Arginase-2, mitochondrial (Homo sapiens) (UniProt P78540) for CNc1ccc(CC2CCCN(C(=O)c3cncnc3C)C2)nn1 (stereo not drawn) is 8.41

Assay Arginase-2, mitochondrial (Homo sapiens) (UniProt P78540), sample COCCN1C[C@H]2[C@@H](C1)N(C(=O)c1cccs1)CC[C@H]2OC , Percent Effect read: -6.07

Short answer on Arginase-2, mitochondrial (Homo sapiens) (UniProt P78540) for CC(C)c1noc(CCC(=O)NCC2CCS(=O)(=O)C2)n1 (stereo not drawn) , Percent Effect: -0.444
